Target: T1, human NPR1 extracellular domain expressed with a C-terminal mouse IgG2a (hNPR1-mFc) (human)
T1 construct: also called hNPR1-Fc; human NPR1 dimer
T1 chain: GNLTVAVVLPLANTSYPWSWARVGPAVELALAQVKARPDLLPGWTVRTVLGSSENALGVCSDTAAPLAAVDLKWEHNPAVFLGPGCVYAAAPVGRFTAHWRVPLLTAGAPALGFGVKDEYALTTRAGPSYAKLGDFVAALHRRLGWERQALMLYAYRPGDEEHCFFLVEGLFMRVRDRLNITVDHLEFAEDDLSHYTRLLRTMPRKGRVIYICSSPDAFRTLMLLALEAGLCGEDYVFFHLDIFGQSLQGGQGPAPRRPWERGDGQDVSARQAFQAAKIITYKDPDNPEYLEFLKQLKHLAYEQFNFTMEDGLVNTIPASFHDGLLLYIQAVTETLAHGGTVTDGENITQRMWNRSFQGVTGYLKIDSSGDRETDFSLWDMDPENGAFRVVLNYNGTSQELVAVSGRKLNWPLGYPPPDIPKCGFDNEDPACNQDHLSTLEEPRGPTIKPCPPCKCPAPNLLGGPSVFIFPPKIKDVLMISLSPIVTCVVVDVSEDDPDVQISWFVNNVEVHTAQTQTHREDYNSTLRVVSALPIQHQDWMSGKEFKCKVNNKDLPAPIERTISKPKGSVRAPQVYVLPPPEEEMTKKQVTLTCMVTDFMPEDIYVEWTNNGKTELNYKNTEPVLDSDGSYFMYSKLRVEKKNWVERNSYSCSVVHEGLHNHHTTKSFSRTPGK
Assay: SPR, mAb captured, 37 C
pKd: −log10 of the molar value.

| binder | pKd |
| --- | --- |
| mAb25497 (antibody, V domains shown) VH: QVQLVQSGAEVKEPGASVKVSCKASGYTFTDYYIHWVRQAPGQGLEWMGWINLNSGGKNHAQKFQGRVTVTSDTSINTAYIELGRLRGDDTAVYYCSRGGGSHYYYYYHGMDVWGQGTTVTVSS VL: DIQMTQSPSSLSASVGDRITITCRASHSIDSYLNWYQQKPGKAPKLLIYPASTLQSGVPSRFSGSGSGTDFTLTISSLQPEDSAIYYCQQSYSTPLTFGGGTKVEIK | 8.14 |
| mAb25491 (antibody, V domains shown) VH: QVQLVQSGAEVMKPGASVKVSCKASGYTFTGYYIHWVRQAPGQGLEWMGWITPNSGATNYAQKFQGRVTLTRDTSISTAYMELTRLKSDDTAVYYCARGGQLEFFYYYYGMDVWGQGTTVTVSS VL: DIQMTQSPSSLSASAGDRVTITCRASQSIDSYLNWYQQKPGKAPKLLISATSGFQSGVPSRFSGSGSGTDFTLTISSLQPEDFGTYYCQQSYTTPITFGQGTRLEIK | 8.06 |
| mAb25508 (antibody, V domains shown) VH: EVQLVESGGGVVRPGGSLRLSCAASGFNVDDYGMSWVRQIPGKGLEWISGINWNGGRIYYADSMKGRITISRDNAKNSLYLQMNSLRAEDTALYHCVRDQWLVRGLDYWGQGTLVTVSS VL: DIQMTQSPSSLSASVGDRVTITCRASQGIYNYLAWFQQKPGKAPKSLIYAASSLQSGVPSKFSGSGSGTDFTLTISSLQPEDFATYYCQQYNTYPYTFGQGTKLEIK | 9.92 |
| mAb22035 (antibody, V domains shown) VH: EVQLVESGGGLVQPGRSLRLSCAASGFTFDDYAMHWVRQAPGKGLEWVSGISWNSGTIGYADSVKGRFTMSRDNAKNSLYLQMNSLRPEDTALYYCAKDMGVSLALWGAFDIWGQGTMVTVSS VL: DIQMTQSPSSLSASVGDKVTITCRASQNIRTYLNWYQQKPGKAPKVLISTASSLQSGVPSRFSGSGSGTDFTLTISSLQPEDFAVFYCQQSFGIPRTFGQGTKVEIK | 9.70 |
| mAb22033 (antibody, V domains shown) VH: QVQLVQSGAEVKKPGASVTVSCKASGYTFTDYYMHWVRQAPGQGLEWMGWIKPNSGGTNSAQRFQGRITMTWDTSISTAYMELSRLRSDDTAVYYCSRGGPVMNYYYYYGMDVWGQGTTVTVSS VL: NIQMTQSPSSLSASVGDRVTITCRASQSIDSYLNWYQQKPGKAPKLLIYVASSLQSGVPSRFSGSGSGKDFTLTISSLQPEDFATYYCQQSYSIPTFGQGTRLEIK | 8.45 |
| mAb25479 (antibody, V domains shown) VH: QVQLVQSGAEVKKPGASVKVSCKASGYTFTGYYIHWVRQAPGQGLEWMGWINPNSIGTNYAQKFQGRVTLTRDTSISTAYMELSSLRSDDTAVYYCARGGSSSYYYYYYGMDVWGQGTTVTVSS VL: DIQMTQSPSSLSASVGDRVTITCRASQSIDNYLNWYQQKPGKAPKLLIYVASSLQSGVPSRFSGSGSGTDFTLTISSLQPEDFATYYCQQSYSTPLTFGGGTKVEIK | 7.39 |

Source: patent US20240309103A1
